The measured values listed here are drawn from patent US5278300A.

- experiment: Lethal toxicity in galactosamine-sensitized mice
- Type: in vivo, C57BL mice
- conditions used: galactosamine-sensitized mice; intravenous; D-galactosamine/HCl 10 mg/mouse intraperitoneally; observed to seventh day; read-out: LD50 (galactosamine load)
Would you mind telling me the reported LD50 at 168 h of each entry?
Dear colleague, please send the value followed by its unit.

Request: Give a short answer stating reported LD50 at 168 h for CCCCCCCCCCCCCCC(CCCCCCCCCCCC)C(=O)O[C@H]1[C@@H]2OP(=O)(O)OC[C@H]2OC[C@@H]1NC(=O)C[C@H](O)CCCCCCCCCCC (stereo partly drawn) .
Response: 0.0711 mg/kg

Request: Give a short answer stating reported LD50 at 168 h for CCCCCCCCCCCCCC(=O)O[C@H](CCCCCCCCCCC)CC(=O)O[C@H]1[C@H](OP(=O)(O)O)[C@@H](CO)OC(O)[C@@H]1NC(=O)C[C@H](O)CCCCCCCCCCC (stereo partly drawn) [Control] .
Response: 0.003 mg/kg

Request: Give a short answer stating reported LD50 at 168 h for `CCCCCCCCCCCCCC(=O)O[C@H](CCCCCCCCCCCC)C(=O)O[C@H]1[C@@H]2OP(=O)(O)OC[C@H]2OC[C@@H]1NC(=O)C[C@H](O)CCCCCCCCCCC` .
Response: 0.0313 mg/kg
